assay.system: hERG (KCNH2) (Homo sapiens, UniProt Q12809)
Sequence (Q12809 whole entry): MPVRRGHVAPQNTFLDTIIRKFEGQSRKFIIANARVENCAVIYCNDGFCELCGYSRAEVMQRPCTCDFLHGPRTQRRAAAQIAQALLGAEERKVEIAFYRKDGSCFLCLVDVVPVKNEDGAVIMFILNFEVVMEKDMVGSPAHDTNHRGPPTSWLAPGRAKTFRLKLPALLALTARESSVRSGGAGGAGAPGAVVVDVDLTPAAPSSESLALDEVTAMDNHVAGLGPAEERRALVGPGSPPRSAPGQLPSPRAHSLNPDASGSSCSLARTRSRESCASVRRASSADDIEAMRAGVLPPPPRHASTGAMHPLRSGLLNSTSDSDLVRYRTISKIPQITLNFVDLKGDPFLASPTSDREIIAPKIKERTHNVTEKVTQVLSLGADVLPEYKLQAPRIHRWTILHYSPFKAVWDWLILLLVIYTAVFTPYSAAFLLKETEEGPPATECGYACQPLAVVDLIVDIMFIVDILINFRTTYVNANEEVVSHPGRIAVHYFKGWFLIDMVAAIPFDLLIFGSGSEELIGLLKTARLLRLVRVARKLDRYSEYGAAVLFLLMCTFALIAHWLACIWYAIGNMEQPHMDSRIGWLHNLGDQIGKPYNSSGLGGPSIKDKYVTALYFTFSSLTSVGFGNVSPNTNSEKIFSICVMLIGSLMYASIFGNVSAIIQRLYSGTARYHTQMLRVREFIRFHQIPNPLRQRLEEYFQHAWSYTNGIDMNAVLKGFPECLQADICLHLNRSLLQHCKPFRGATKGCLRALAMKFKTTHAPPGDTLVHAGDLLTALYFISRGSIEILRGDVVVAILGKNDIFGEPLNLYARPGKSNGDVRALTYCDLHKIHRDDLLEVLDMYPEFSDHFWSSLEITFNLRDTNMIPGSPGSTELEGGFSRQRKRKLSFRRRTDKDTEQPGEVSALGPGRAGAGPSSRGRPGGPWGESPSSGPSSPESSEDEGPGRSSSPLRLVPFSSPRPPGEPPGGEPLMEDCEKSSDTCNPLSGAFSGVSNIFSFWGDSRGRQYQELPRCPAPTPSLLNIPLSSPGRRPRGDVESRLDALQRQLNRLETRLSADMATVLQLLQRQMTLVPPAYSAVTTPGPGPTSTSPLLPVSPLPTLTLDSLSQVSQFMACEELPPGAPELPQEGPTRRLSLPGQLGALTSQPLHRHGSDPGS
experiment: Inhibition of human ERG at 10 uM relative to control
readout.kind: inhibition at 10 µM (%)
Numbers only, in %.

{"columns": ["compound", "readout.kind", "recorded.value"],
 "data": [
  ["CCCN1[C@H]2CC[C@H]1CC(c1cc(OC)c(OC)c(OC)c1)C2 (relative stereo)", "inhibition at 10 µM", 66],
  ["CCCN1[C@H]2CC[C@H]1CC(O)(c1ccccc1OC)C2 (relative stereo)", "inhibition at 10 µM", 46]
]}

Attention now shifts to the item below.
input: What value of inhibition at 10 µM has been recorded for this entry: `CCCN1[C@@H]2COC[C@H]1CN(c1ccccc1OC)C2`
output: 12

====

assay.system: D(2) dopamine receptor (Homo sapiens) (UniProt P14416)
Sequence (P14416 whole entry): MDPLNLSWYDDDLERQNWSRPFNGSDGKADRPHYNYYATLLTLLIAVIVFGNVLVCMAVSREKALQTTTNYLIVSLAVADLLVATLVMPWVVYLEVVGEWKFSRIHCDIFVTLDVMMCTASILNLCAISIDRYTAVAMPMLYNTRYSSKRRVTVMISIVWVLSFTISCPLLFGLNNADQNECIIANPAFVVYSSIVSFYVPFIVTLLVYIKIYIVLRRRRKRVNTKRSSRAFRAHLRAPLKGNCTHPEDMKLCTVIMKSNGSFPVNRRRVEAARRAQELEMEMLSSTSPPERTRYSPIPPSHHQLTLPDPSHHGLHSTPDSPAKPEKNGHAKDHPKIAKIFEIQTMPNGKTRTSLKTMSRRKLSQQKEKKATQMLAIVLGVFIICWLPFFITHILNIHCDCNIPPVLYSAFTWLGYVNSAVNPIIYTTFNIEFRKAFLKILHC
experiment: Agonist activity at human D2L receptor expressed in CHOK1 cells assessed as inhibition of receptor response at 10 uM by calcium flux assay relative to control
Format: functional, cell-based
readout.kind: inhibition (%)
One number for each entry, in %.

{"columns": ["molecule", "inhibition, %"],
 "data": [
  ["CCCN1C[C@H]2OC[C@@H]1C[C@@]2(O)c1ccccc1OC", 16],
  ["CCCN1CCN(c2ccccc2OC)CC1", 99],
  ["CCCN1[C@H]2CC[C@H]1CC(c1cccc(OC)c1)C2 (relative stereo)", 32],
  ["CCCN1[C@H]2CC[C@H]1CC(O)(c1ccccc1OC)C2 (relative stereo)", -8]
]}

Attention now shifts to the item below.
input: What value of inhibition has been recorded for this entry: `CCCN1C[C@H]2OC[C@@H]1C[C@@H]2c1ccccc1OC`
output: 16

====

experiment: Stability in mouse microsomes; also: time not given here
Assay type: ADME, Microsome
readout.kind: Stability (%)
One number for each entry, in %.

{"columns": ["compound", "Stability / %"],
 "data": [
  ["CCCN1[C@H]2CC[C@H]1CC(c1ccccc1OC)C2 (relative stereo; 8a)", 3],
  ["CCCN1CCC(c2ccccc2OC)CC1", 30],
  ["CCCN1[C@H]2CC[C@H]1CC(O)(c1ccccc1OC)C2 (relative stereo)", 54],
  ["CCCN1[C@H]2CC[C@H]1CC(c1ccc(OC)c(OC)c1)C2 (relative stereo)", 21],
  ["CCCN1C[C@H]2OC[C@@H]1C[C@@]2(O)c1ccccc1OC", 18],
  ["CCCN1[C@H]2COC[C@H]1CC(c1ccccc1OC)C2 (relative stereo; 16)", 7],
  ["CCCN1[C@H]2COC[C@H]1CC(c1ccccc1OC)C2 (relative stereo; 20)", 2],
  ["CCCN1[C@@H]2COC[C@H]1CN(c1ccccc1OC)C2", 18]
]}

Attention now shifts to the item below.
input: What value of Stability has been recorded for this entry: CCCN1[C@H]2CC[C@H]1CC(c1ccc(OC)cc1)C2 (relative stereo)
output: 5

====

experiment: Stability in human microsomes; also: time not given here
Format: ADME, Microsome
The label depends only on Stability: condition met if it is at least 60%, condition not met if it is smaller.

Study these solved cases before continuing.
{"columns": ["compound", "class.name"],
 "data": [
  ["CCCN1[C@H]2COC[C@H]1CC(c1ccccc1OC)C2 (relative stereo; 16)", "condition not met"],
  ["CCCN1[C@@H]2COC[C@H]1CN(c1ccccc1OC)C2", "condition met"],
  ["CCCN1[C@H]2CC[C@H]1CC(c1ccccc1OC)C2 (relative stereo; 8a)", "condition not met"],
  ["CCCN1C[C@H]2OC[C@@H]1C[C@]2(O)c1ccccc1OC", "condition met"],
  ["CCCN1[C@H]2CC[C@H]1CC(c1ccccc1OC)C2 (relative stereo; 4)", "condition met"],
  ["CCCN1CCN(c2ccccc2OC)CC1", "condition met"],
  ["CCCN1C[C@H]2OC[C@@H]1C[C@@]2(O)c1ccccc1OC", "condition met"],
  ["CCCN1[C@H]2CC[C@H]1CC(c1cccc(OC)c1)C2 (relative stereo)", "condition not met"]
]}

In the following, a different compound is considered.
input: Hi team, for CCCN1[C@H]2CC[C@H]1CC(c1cc(OC)c(OC)c(OC)c1)C2 (relative stereo) , is the recorded Stability at or above 60%?
output: condition met

The measurements presented in this section are drawn from ChEMBL document CHEMBL4229414.
